Each recorded value in this set is attributed to patent US4440772A.

experiment: acute toxicity (LD50), intraperitoneal administration; conditions: mouse, in vivo, ip, male mice, 24 hours after administration
ASSAY_METRIC: LD50 at 24 h

Input line: Sample CC(C)[C@@]1(NC(=O)[C@H]2C=C3c4cccc5[nH]cc(c45)C[C@H]3N(C)C2)O[C@@]2(O)[C@@H]3CCCN3C(=O)[C@H](Cc3ccccc3)N2C1=O [ergocristinine methanesulfonate, Ergocristinine methanesulfonate] — what was its LD50 at 24 h?
Output line: > 600 mg/kg

Others:
Input line: Quick check: LD50 at 24 h of CC(C)C[C@H]1C(=O)N2CCC[C@H]2[C@]2(O)O[C@](NC(=O)[C@H]3C=C4c5cccc6[nH]cc(c56)C[C@H]4N(C)C3)(C(C)C)C(=O)N12 [ergocryptinine methanesulfonate, Ergocryptinine methanesulfonate] ?
Output line: > 520 mg/kg

Input line: May I ask what LD50 at 24 h has been recorded for CN1C[C@@H](C(=O)N[C@]2(C)O[C@@]3(O)[C@@H]4CCCN4C(=O)[C@H](Cc4ccccc4)N3C2=O)C=C2c3cccc4[nH]cc(c34)C[C@H]21 [ergotaminine methanesulfonate, Ergotaminine methanesulfonate] ?
Output line: > 300 mg/kg

###

test system: arrhythmias induced by adrenalin; test: effect on arrhythmia induced by adrenalin; format: in vivo; conditions: 2.0 mg/kg intraperitoneally, guinea pigs, adrenalin 0.02 mg/kg intravenously
Structures can show the parent of a compound that is named as a salt.
Listed below: Shortening of arrhythmia duration values for each entry.

The following compounds have reported results that may help.
Input line: What measured Shortening of arrhythmia duration goes with CC(C)[C@H]1C(=O)N2CCC[C@H]2[C@]2(O)O[C@](NC(=O)[C@H]3C=C4c5cccc6[nH]cc(c56)C[C@H]4N(C)C3)(C(C)C)C(=O)N12 [ergocorninine methanesulfonate, Ergocorninine methanesulfonate] ?
Output line: 46 % of control

Input line: Fill in the blank: the reported Shortening of arrhythmia duration of CC(C)C[C@H]1C(=O)N2CCC[C@H]2[C@]2(O)O[C@](NC(=O)[C@H]3C=C4c5cccc6[nH]cc(c56)C[C@H]4N(C)C3)(C(C)C)C(=O)N12 [ergocryptinine methanesulfonate, Ergocryptinine methanesulfonate] is ____.
Output line: 63 % of control

Input line: Using the record for CC(C)C[C@H]1C(=O)N2CCC[C@H]2[C@]2(O)O[C@@](C)(NC(=O)[C@@H]3C=C4c5cccc6[nH]cc(c56)C[C@H]4N(C)C3)C(=O)N12 [ergosine methanesulfonate, reference compound] , report its Shortening of arrhythmia duration.
Output line: 84 % of control

Okay, now this compound:
Input line: I am curious: what Shortening of arrhythmia duration value has been reported for CN1C[C@H](C(=O)N[C@]2(C)O[C@@]3(O)[C@@H]4CCCN4C(=O)[C@H](Cc4ccccc4)N3C2=O)C=C2c3cccc4[nH]cc(c34)C[C@H]21 [ergotamine tartrate, reference compound] ?
Output line: 63 % of control
